- Tested on: MCF7 breast
- procedure_text: NCI tumour cell line growth inhibition, 384-well format; in the data active = GI50 below about 0.43 µM; inactive = the rest
Answer with one of the outcomes given here: YES (active), NO (inactive)

Example entries begin here.
# mol, assigned_category
data = [
    ("CCc1c2c(nc3ccc(OC(=O)N4CCC(N5CCCCC5)CC4)cc13)-c1cc3c(c(=O)n1C2)COC(=O)[C@]3(O)CC", "NO"),
    ("Nc1ccc(/C=C/C(=O)NCc2cc3cc(-c4ccc(C(=O)N5CCC(F)(F)CC5)cc4)cc(-c4ccc(F)cc4)c3o2)cn1", "YES"),
    ("Cn1cc(C2=C(c3cn(C4CCN(Cc5ccccn5)CC4)c4ccccc34)C(=O)NC2=O)c2ccccc21", "NO"),
]

Qu. Field: outcome | Entry: COc1ccc(CN2C3CC2CN(c2ccc(-c4cc(OCC(C)(C)O)cn5ncc(C#N)c45)cn2)C3)cn1
Ans. NO
